Biological target: TRKB (Homo sapiens, UniProt Q16620)
Construct: purchased Carna
Sequence (Q16620 32-822): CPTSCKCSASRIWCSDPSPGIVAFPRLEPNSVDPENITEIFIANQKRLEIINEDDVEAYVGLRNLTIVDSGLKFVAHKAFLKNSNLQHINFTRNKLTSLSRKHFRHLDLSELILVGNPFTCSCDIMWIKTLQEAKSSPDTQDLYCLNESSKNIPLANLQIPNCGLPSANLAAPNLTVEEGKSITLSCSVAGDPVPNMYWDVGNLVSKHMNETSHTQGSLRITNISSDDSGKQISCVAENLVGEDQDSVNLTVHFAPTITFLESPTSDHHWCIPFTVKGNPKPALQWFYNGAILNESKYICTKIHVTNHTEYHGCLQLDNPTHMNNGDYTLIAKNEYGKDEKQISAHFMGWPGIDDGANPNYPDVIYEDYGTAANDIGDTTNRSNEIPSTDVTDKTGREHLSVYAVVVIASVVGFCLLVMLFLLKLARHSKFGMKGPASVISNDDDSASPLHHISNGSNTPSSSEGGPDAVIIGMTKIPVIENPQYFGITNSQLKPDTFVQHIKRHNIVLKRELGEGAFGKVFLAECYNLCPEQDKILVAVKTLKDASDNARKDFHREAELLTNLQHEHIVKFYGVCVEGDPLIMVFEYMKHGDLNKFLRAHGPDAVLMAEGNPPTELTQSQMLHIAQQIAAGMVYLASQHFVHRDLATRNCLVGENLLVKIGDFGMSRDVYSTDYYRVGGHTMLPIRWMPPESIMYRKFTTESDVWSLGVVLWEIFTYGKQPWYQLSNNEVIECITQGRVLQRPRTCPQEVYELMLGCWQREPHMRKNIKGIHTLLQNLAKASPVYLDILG
Test: In vitro kinase inhibitory activity assay, Experimental method 2 (ADP-Glo)
Assay type: biochemical
Conditions: Experimental method 2; ATP 5.0 µM, substrate PolyE4Y1; read-out: Kinase half maximal inhibitory concentration IC50 TRKB
pIC50: −log10 of the molar value.
Label scheme for pIC50: lower than 9 is F, 9 and above is T.

molecular_string | label_value
O=C1NC2(CCC2)COc2ccc(F)cc2CN2c3nc4c1c(Br)nn4cc3OC[C@H]2C(F)F | F
CC#Cc1nn2cc3c4nc2c1C(=O)NC(C)(C)COc1ccc(F)cc1CN4[C@H](C(F)F)CO3 | F
N#Cc1nn2cc3c4nc2c1C(=O)NC1(CCC1)COc1ccc(F)cc1CN4[C@H](C(F)F)CO3 | F
CC1(C)COc2ccc(F)cc2CN2c3nc4c(c(C#N)nn4cc3OC[C@H]2C(F)F)C(=O)N1 | F
Cc1nn2cc3c4nc2c1C(=O)NC1(CC1)COc1ccc(F)cc1CN4[C@H](C(F)F)CO3 | T

Turning now to a further record.
Identify whether the reported pIC50 of the following molecule is 9 or greater: `C#Cc1nn2cc3c4nc2c1C(=O)NC(C)(C)COc1ccc(F)cc1CN4[C@H](C(F)F)CO3` F

###

Assay: In vivo pharmacokinetic testing in mice
Parameters: species or system male CD-1 mice
Conditions: mouse, IV, 0.5 mg/kg, plasma, read-out: Area under the curve AUC0-last
readout_kind: AUC(0-t)
Could you give the number and then its unit, please?

// AUC(0-t) lookup, key: C#Cc1nn2cc3c4nc2c1C(=O)NC(C)(C)COc1ccc(F)cc1CN4[C@H](C(F)F)CO3 [Compound 019] 15.2 µM·h

###

Test: Cell permeability test, MDCKII-MDR1 monolayer
Format: in vitro ADME
Conditions: dog, MDCK-MDR1, pH 7.4; 2 µM, 150 minutes, pH 7.40
readout_kind: Papp B→A at 2.5 h, 2 µM (×10⁻⁶ cm/s)
Only the number, expressed in ×10⁻⁶ cm/s, is required.

// Papp B→A at 2.5 h, 2 µM lookup, key: `CC1(C)COc2ncc(F)cc2CN2c3nc4c(cc3OC[C@H]2C(F)F)ncn4C(=O)N1` 9.02

###

Examples of molecules with documented IC50 follow.
Biological target: ALK(G1202R/L1196M) (Homo sapiens, UniProt Q9UM73, G1202R/L1196M)
Construct: purchased Carna
Sequence (Q9UM73 19-1620 L1196M/G1202R): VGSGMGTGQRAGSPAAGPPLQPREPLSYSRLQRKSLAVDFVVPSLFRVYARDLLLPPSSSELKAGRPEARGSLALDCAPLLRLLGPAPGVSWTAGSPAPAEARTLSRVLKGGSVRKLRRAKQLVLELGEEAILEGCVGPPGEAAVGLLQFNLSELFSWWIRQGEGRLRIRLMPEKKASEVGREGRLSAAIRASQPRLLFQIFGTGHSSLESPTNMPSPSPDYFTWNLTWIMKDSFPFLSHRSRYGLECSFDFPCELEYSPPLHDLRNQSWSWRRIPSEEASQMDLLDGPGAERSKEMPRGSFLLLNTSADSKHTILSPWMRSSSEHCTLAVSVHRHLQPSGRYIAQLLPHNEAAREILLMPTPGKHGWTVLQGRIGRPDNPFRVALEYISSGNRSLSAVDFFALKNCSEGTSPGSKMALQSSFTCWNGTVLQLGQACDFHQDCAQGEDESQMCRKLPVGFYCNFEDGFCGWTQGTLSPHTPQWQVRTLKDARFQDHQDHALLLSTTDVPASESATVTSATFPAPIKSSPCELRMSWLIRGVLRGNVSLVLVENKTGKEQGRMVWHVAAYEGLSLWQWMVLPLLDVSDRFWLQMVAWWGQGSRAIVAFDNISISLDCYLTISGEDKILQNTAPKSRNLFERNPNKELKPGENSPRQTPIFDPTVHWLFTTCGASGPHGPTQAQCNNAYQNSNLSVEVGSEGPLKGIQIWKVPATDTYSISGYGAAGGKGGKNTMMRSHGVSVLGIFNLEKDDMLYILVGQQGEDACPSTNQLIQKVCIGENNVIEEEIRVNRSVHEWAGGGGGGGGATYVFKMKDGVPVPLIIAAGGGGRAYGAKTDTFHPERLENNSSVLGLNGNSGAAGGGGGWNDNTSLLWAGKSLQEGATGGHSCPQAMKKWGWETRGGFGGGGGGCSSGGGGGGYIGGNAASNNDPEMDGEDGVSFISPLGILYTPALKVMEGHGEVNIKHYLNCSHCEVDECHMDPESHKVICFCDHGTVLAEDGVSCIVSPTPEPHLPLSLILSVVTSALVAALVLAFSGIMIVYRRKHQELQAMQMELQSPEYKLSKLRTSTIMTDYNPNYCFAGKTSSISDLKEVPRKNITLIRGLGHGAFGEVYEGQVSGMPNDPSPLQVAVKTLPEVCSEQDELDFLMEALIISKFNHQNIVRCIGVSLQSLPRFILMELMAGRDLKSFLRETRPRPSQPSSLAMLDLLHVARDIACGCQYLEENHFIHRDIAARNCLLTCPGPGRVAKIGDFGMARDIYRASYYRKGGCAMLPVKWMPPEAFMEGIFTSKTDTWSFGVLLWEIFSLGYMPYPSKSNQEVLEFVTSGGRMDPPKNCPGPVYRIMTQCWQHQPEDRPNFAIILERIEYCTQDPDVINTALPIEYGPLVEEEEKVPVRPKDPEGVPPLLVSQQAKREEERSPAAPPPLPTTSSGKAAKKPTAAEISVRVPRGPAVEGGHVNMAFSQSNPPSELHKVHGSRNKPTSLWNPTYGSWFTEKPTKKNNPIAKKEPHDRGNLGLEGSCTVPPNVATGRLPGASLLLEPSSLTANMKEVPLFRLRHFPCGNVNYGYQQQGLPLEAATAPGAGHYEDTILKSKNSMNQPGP
Assay: In vitro kinase inhibitory activity assay, Experimental method 1 (ADP-Glo)
Format: biochemical
Settings: final ATP 50 µM, read-out: Kinase half maximal inhibitory concentration IC50 ALK^G1202R/L1196M
Only the number, expressed in nM, is required.

molecular_string | value_measured
CON=C1NC(C)(C)COc2ncc(F)cc2CN2c3nc4c1cnn4cc3OC[C@H]2C(F)F | 5.2
CON=C1NC(C)(C)COc2ccc(F)cc2CN2c3nc4c1cnn4cc3OC[C@H]2C(F)F | 12.4
COCCON=C1NC(C)(C)COc2ccc(F)cc2CN2c3nc4c1cnn4cc3OC[C@H]2C(F)F | 11.3

Return IC50 measured with ALK(G1202R/L1196M) (Homo sapiens, UniProt Q9UM73, G1202R/L1196M) given this molecule: `CCON=C1NC(C)(C)COc2ccc(F)cc2CN2c3nc4c1cnn4cc3OC[C@H]2C(F)F` 14.6

Return IC50 measured with ALK(G1202R/L1196M) (Homo sapiens, UniProt Q9UM73, G1202R/L1196M) given this molecule: `CC1(C)COc2ncc(F)cc2CN2c3nc4c(cnn4cc3OC[C@H]2C(F)F)C(=S)N1` 1.3

###

Examples of molecules with documented pIC50 follow.
Tested on: Ba/F3-EML4-ALK-G1202R/L1196M
Experiment: Anti-proliferative activity test on Ba/F3 cell lines (CellTiter-Glo)
Format: cell-based
Details: Ba/F3 EML4-ALK-G1202R-L1196M; 72 hours; read-out: Half maximal inhibitory concentration IC50 for cells Ba/F3-EML4-ALK-G1202R/L1196 M
Protocol: • (1) Cell culture: The cell lines were cultured in an incubator at 37°C with 5% CO2. […] After the compound or DMSO was added, the mixture was homogenized using a pipette. • (5) Cells were stained with trypan blue and viable cells were counted to ensure a cell viability of 90% or more. […] Data analysis: The corresponding […] value (RLU) for each well was obtained from SpectraMax Paradigm readings. […]
Interpret pIC50 as the negative base-10 log of the concentration measured in mol/L.

Example results:
molecular_string | pIC50
O=C1NC2(CC2)COc2ccc(F)cc2CN2c3nc4c(cc3OC[C@H]2C(F)F)ncn41 | 8.28
Cc1nc2cc3c4nc2n1C(=O)NC(C)(C)COc1ccc(F)cc1CN4[C@H](C(F)F)CO3 | 8.15

// pIC50 lookup, key: `CC#Cc1nn2cc3c4nc2c1C(=O)NC(C)(C)COc1ccc(F)cc1CN4[C@H](C(F)F)CO3` 8.96

// pIC50 lookup, key: `O=C1N[C@H]2C[C@H](C2)Oc2ccc(F)cc2CN2c3nc4c1c(Br)nn4cc3OC[C@H]2C(F)F` 7.97

// pIC50 lookup, key: `N#Cc1nn2cc3c4nc2c1C(=O)NC1(CCC1)COc1ccc(F)cc1CN4[C@H](C(F)F)CO3` 8.38

// pIC50 lookup, key: `C#Cc1nn2cc3c4nc2c1C(=O)NC(C)(C)COc1ccc(F)cc1CN4[C@H](C(F)F)CO3` 8.77

###

System: Ba/F3-EML4-ALK-G1202R/L1196M
Assay: Anti-proliferative activity test on Ba/F3 cell lines (CellTiter-Glo)
Format: cell-based
Settings: Ba/F3 EML4-ALK-G1202R-L1196M; 72 hours; read-out: Half maximal inhibitory concentration IC50 for cells Ba/F3-EML4-ALK-G1202R/L1196 M
Examples of compounds with documented IC50 follow.
Only the number, expressed in nM, is required.

// IC50 lookup, key: `CC1(C)COc2ccc(F)cc2CN2c3nc4c(c(Br)nn4cc3OC[C@H]2C(F)F)C(=O)N1` 7.3

###

Target: ALK (Homo sapiens, UniProt Q9UM73)
Sequence (Q9UM73 19-1620): as the sequence (Q9UM73 19-1620 L1196M/G1202R) above, with M1178L, R1184G counted along it
readout_kind: IC50 (nM)
Only the number, expressed in nM, is required.

// IC50 lookup, key: CON=C1NC(C)(C)COc2ccc(F)cc2CN2c3nc4c1cnn4cc3OC[C@H]2C(F)F [Compound 001] 22.2

###

Experiment: In vivo pharmacokinetic testing in mice
Design: species or system male CD-1 mice
Settings: mouse, IV, 0.5 mg/kg, plasma, read-out: Apparent volume of distribution Vd
readout_kind: Vd (L/kg)
Only the number, expressed in L/kg, is required.

// Vd lookup, key: C#Cc1nn2cc3c4nc2c1C(=O)NC(C)(C)COc1ccc(F)cc1CN4[C@H](C(F)F)CO3 [Compound 019] 0.274

###

Examples of molecules with documented pIC50 follow.
Target: TRKB (Homo sapiens)
Construct: purchased Carna
Assay: In vitro kinase inhibitory activity assay, Experimental method 2 (ADP-Glo)
Assay type: biochemical
Settings: Experimental method 2; ATP 5.0 µM, substrate PolyE4Y1; read-out: Kinase half maximal inhibitory concentration IC50 TRKB
Interpret pIC50 as the negative base-10 log of the concentration measured in mol/L.

molecular_string | readout_kind | value_measured
O=C1NC2(CC2)COc2ccc(F)cc2CN2c3nc4c(cc3OC[C@H]2C(F)F)ncn41 | pIC50 | 9.15

// pIC50 lookup, key: `Cc1nn2cc3c4nc2c1C(=O)NC(C)(C)COc1ncc(F)cc1CN4[C@H](C(F)F)CO3` 8.96

// pIC50 lookup, key: `Cc1nn2cc3c4nc2c1C(=O)NC(C)(C)COc1ccc(F)cc1CN4[C@H](C(F)F)CO3` 8.92

###

Tested on: Ba/F3-EML4-ALK-G1202R/L1196M
Experiment: Anti-proliferative activity test on Ba/F3 cell lines (CellTiter-Glo)
Type: cell-based
Conditions: Ba/F3 EML4-ALK-G1202R-L1196M; 72 hours; read-out: Half maximal inhibitory concentration IC50 for cells Ba/F3-EML4-ALK-G1202R/L1196 M
readout_kind: pIC50
Interpret pIC50 as the negative base-10 log of the concentration measured in mol/L.

Example results:
molecule | value_measured
CC1(C)COc2ncc(F)cc2CN2c3nc4c(cc3OC[C@H]2C(F)F)ncn4C(=O)N1 [Compound 013] | 8.92
N#Cc1nn2cc3c4nc2c1C(=O)N[C@H]1C[C@H](C1)Oc1ccc(F)cc1CN4[C@H](C(F)F)CO3 [Compound 024] | 8.80

Return pIC50 measured with Ba/F3-EML4-ALK-G1202R/L1196M given this molecule: Cc1nn2cc3c4nc2c1C(=O)NC1(CC1)COc1ccc(F)cc1CN4[C@H](C(F)F)CO3 [Compound 016] 7.90

The measurements presented in this section are drawn from patent EP4559919A1.
